Molecular target: human OX2R (Homo sapiens)
Construct: expressed in transfected cells; host or cells: CHO; cells from GNF, San Diego
Experiment: FLIPR orexin A-stimulated calcium accumulation, human OX2R
Format: cell-based
Settings: CHO cells, antagonist incubation 2 h
From the text: Chinese Hamster Ovary (CHO) cells stably transfected with the cDNA encoding the human OX1R (CHO-hOX1) or OX2R (CHO-hOX2) were used (kindly provided by T. Cremer and Dr. S. Geisse, NIBR Basel, Switzerland). For measurements of calcium accumulation using FLIPR® (Fluorescent Imaging Plate Reader) assay, CHO or Human Embryonic Kidney (HEK) cells stably expressing mouse, rat or human OX1R or OX2R (kindly provided by Dr. A. Chen, GNF, San Diego, CA, USA) were used. […]
# pKi values compiled below
Units for pKi: none; it is -log10 of a concentration expressed in mol/L.

See these solved cases before continuing.
CNC(=O)[C@@H](c1ccccc1)N1CCc2cc(OC)c(OC)cc2[C@@H]1CCc1ccc(C(F)(F)F)cc1 [Almorexant]    8.80
Cc1ccc(-c2ncccn2)c(C(=O)N2C[C@H](COc3ccc(F)cn3)CC[C@H]2C)c1 [Filorexant]    9.73
COc1ccnc(N2CCC3(CCCN(Cc4c[nH]c5ccccc45)C3=O)CC2)n1 [IPSU]    7.82

# pKi of Cc1nc(C(=O)N2CCCC[C@H]2CNC(=O)c2cccc3occc23)c(-c2ccc(F)cc2)s1 [SB-649868] = 9.77

###

Target: human OX2R (Homo sapiens, UniProt O43614)
Construct: expressed in transfected cells; host or cells: CHO; cells from GNF, San Diego
Sequence (O43614 whole entry): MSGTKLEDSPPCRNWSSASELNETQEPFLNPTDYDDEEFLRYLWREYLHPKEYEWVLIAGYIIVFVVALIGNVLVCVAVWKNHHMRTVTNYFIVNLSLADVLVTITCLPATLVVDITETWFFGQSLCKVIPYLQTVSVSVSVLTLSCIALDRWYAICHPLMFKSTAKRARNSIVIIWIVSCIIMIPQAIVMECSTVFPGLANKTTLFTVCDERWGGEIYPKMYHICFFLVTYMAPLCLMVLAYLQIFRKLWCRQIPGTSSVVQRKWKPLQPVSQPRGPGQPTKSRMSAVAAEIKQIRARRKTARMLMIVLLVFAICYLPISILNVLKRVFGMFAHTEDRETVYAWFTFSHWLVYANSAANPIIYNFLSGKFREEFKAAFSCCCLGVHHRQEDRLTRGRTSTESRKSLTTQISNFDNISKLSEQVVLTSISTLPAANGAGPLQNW
Assay: FLIPR orexin A-stimulated calcium accumulation, human OX2R
Assay type: cell-based
Details: CHO cells, antagonist incubation 30 min
# pKi values compiled below
Units for pKi: none; it is -log10 of a concentration expressed in mol/L.

COc1ccnc(N2CCC3(CCCN(Cc4c[nH]c5ccccc45)C3=O)CC2)n1 [IPSU]    8.00

# pKi of Cc1nc(C(=O)N2CCCC[C@H]2CNC(=O)c2cccc3occc23)c(-c2ccc(F)cc2)s1 [SB-649868] = 9.52

# pKi of Cc1ccc(-c2ncccn2)c(C(=O)N2C[C@H](COc3ccc(F)cn3)CC[C@H]2C)c1 [Filorexant] = 9.45

###

Target: human OX1R (Homo sapiens, UniProt O43613)
Construct: expressed in transfected cells; host or cells: CHO; cells from GNF, San Diego
Sequence (O43613 whole entry): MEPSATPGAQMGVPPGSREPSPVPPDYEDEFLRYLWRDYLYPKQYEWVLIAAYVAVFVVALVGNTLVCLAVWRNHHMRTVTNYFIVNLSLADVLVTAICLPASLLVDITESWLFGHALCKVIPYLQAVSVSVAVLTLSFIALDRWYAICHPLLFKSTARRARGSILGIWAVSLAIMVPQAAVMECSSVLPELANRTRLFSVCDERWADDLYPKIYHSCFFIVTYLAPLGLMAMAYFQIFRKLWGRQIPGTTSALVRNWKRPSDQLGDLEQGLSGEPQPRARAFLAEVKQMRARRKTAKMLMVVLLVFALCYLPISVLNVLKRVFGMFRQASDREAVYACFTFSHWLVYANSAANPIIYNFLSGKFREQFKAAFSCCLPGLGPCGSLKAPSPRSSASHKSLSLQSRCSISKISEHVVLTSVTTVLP
Assay: FLIPR orexin A-stimulated calcium accumulation, human OX1R
Format: cell-based
Conditions: CHO cells, antagonist incubation 4 h
parameter measured: pKi
Units for pKi: none; it is -log10 of a concentration expressed in mol/L.

# pKi of Cc1ccc(-c2ncccn2)c(C(=O)N2C[C@H](COc3ccc(F)cn3)CC[C@H]2C)c1 [Filorexant] = 8.55

# pKi of Cc1nc(C(=O)N2CCCC[C@H]2CNC(=O)c2cccc3occc23)c(-c2ccc(F)cc2)s1 [SB-649868] = 9.38

# pKi of COc1ccnc(N2CCC3(CCCN(Cc4c[nH]c5ccccc45)C3=O)CC2)n1 [IPSU] = 6.14

###

# Ki values compiled below
Biological target: mouse OX2R (Mus musculus, UniProt P58308)
Construct: expressed in transfected cells; host or cells: HEK; cells from GNF, San Diego
Sequence (P58308 whole entry): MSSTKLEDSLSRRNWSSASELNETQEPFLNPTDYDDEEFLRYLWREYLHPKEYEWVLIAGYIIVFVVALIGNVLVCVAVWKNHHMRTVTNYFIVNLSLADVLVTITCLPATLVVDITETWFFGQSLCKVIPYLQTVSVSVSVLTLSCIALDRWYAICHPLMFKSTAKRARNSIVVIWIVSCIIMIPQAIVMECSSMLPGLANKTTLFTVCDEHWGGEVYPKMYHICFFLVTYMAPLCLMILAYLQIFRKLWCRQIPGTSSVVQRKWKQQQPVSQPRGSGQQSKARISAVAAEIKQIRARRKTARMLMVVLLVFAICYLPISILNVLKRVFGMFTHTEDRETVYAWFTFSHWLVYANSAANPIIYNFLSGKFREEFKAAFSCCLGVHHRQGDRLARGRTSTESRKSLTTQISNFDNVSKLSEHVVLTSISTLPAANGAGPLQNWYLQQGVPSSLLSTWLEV
Experiment: FLIPR orexin A-stimulated calcium accumulation, mouse OX2R
Type: cell-based
Details: HEK cells, antagonist incubation 4 h, read-out: pKi (converted)
Hi! Could you send only the number? It should be in nM, unit omitted.

# Ki of Cc1ccc(-c2ncccn2)c(C(=O)N2C[C@H](COc3ccc(F)cn3)CC[C@H]2C)c1 = 1.29

# Ki of Cc1nc(C(=O)N2CCCC[C@H]2CNC(=O)c2cccc3occc23)c(-c2ccc(F)cc2)s1 = 0.912

# Ki of COc1ccnc(N2CCC3(CCCN(Cc4c[nH]c5ccccc45)C3=O)CC2)n1 = 60.3

# Ki of CNC(=O)[C@@H](c1ccccc1)N1CCc2cc(OC)c(OC)cc2[C@@H]1CCc1ccc(C(F)(F)F)cc1 = 4.17
